A collection of compounds and their measured LC retention time
Assay: Waters ACQUITY UPLC BEH C18, 100 × 2.1 mm, 1.7 µm, 40 °C, 0.3 to 0.4 mL/min, estimated dead time 0.63 min; A: water + 0.1% formic acid; B: methanol + 0.1% formic acid; gradient (min/%B) 0/0.5 0.1/0.5 10/80 10.1/99.5 12/99.5
Details: stereoisomer not certain
Expressed in min, but write only the number.

Answered cases to consult:
O=c1cc(-c2ccc(O)c(O)c2)oc2c(C3OC(CO)C(O)C(O)C3O)c(O)c(C3OCC(O)C(O)C3O)c(O)c12 (centres undefined) = 3.19
COC(=O)C=Cc1ccccc1 = 2.87
CCC12CCCN3CCc4c(n(c5ccccc45)C(=O)C1)C32 (centres undefined) = 4.65

Next compound, please.
Task item: Which measured LC retention time value corresponds to O=c1cc(-c2ccc(O)cc2)oc2cc(OC3OC(CO)C(O)C(O)C3O)c(O)c(O)c12 (centres undefined) ?
Reply: 4.13

###

Assay: Waters ACQUITY UPLC BEH C18, 100 × 2.1 mm, 1.7 µm, 40 °C, 0.3 to 0.4 mL/min, estimated dead time 0.63 min; A: water + 0.1% formic acid; B: methanol + 0.1% formic acid; gradient (min/%B) 0/0.5 0.1/0.5 10/80 10.1/99.5 12/99.5
Conditions: stereoisomer not certain
A collection of molecules and their measured LC retention time

O=C1CC(c2ccc(O)c(O)c2)Oc2cc(O)cc(O)c21 (stereo not drawn) = 5.35 min

Task item: Which measured LC retention time value corresponds to COc1cc2ccc(=O)oc2cc1O ?
Reply: 4.24 min

Task item: Which measured LC retention time value corresponds to CCCCCCCCNC(O)CCc1ccc(O)c(OC)c1 (stereo not drawn) ?
Reply: 5.25 min

###

Test: Waters ACQUITY UPLC BEH C18, 100 × 2.1 mm, 1.7 µm, 40 °C, 0.3 to 0.4 mL/min, estimated dead time 0.63 min; A: water + 0.1% formic acid; B: methanol + 0.1% formic acid; gradient (min/%B) 0/0.5 0.1/0.5 10/80 10.1/99.5 12/99.5
Settings: stereoisomer not certain
Each record is given class 1 if its reported LC retention time is strictly below 5 min. Records at or above 5 min are given class 0.

Please review the following examples before continuing.
CC(C)C(O)(C(=O)OCC1=CCN2CCC(O)C12)C(C)O (stereo not drawn) = class 1
O=c1cc2oc(-c3ccc([O-])c(O)c3)c(OC3OC(CO)C(O)C(O)C3OC3OCC(O)C(O)C3O)cc-2c(O)c1 (stereo not drawn) = class 1
CC1OC(OC2C(OC3C(OC4CCC5(C)C(CCC6(C)C5CC=C5C7CC(C)(C)C(OC8OC(C)C(O)C(O)C8O)CC7(C)CCC56C)C4(C)CO)OC(C(=O)O)C(O)C3O)OC(C(=O)O)C(O)C2O)C(O)C(O)C1O (stereo not drawn) = class 0
COc1cc(-c2[o+]c3cc(O)cc(O)c3cc2OC2OC(CO)C(O)C(O)C2O)cc(O)c1O (stereo not drawn) = class 1
CC1OC(OC2CC(C)(C)CC3C4=CCC5C6(C)CCC(OC7OC(C(=O)O)C(O)C(O)C7OC7OC(CO)C(O)C(O)C7OC7OCC(O)C(O)C7O)C(C)(CO)C6CCC5(C)C4(C)CCC23C)C(O)C(O)C1O (stereo not drawn) = class 0

Task item: Given the entry CC1OC(OCC2OC(Oc3c(-c4ccc(O)c(O)c4)oc4cc(O)cc(O)c4c3=O)C(O)C(O)C2O)C(O)C(O)C1O (stereo not drawn) , would its reported LC retention time be below 5 min?
Reply: class 1

Task item: Given the entry CS(=O)CCCCCCCCC#N (stereo not drawn) , would its reported LC retention time be below 5 min?
Reply: class 1

Task item: Given the entry CC1=C2C(=O)C3C(CC=C4CC(OC5OC(CO)C(O)C(O)C5O)CCC43C)C2CCC12OC1CC(C)CNC1C2C (stereo not drawn) , would its reported LC retention time be below 5 min?
Reply: class 1

Task item: Given the entry O=C1CCC(C(=O)O)N1 (stereo not drawn) , would its reported LC retention time be below 5 min?
Reply: class 1

Task item: Given the entry C1CCN2CC3CC(CN4CCCCC34)C2C1 (stereo not drawn) , would its reported LC retention time be below 5 min?
Reply: class 1

Task item: Given the entry CCCCCCCCC=CCCCCCCCC(=O)OCC(O)COP(=O)([O-])OCC[NH3+] (stereo not drawn) , would its reported LC retention time be below 5 min?
Reply: class 0

Task item: Given the entry O=C(O)CCC(NC(=O)Cc1c[nH]c2ccccc12)C(=O)O (stereo not drawn) , would its reported LC retention time be below 5 min?
Reply: class 1

Task item: Given the entry CSCCCCCCCN=C=S , would its reported LC retention time be below 5 min?
Reply: class 0

Task item: Given the entry O=C1CC(c2ccc(O)cc2)Oc2cc(O)ccc21 (stereo not drawn) , would its reported LC retention time be below 5 min?
Reply: class 0

Task item: Given the entry O=CC=Cc1ccc(O)cc1 , would its reported LC retention time be below 5 min?
Reply: class 1

Task item: Given the entry CC1OC(OC2C(OC3C(OC4CCC5(C)C(CCC6(C)C5C=CC5=C7CC(C)(C)CC(O)C7(C)CCC56C)C4(C)CO)OC(C(=O)O)C(O)C3O)OC(C(=O)O)C(O)C2O)C(O)C(O)C1O (stereo not drawn) , would its reported LC retention time be below 5 min?
Reply: class 0

Task item: Given the entry CCCCCC=CC=CC(=O)CCCCCCCC(=O)O , would its reported LC retention time be below 5 min?
Reply: class 0

Task item: Given the entry O=C(O)C1OC(Oc2ccc(-c3oc4cc(O)c(C5OC(CO)C(O)C(O)C5O)c(O)c4c(=O)c3C3OC(CO)C(O)C(O)C3O)cc2)C(O)C(O)C1O (stereo not drawn) , would its reported LC retention time be below 5 min?
Reply: class 1

Task item: Given the entry CC1(C)CCC2(C(=O)O)C(O)CC3(C)C(=CCC4C5(C)CCC(OC6OC(CO)C(O)C(O)C6O)C(C)(C)C5CCC43C)C2C1 (stereo not drawn) , would its reported LC retention time be below 5 min?
Reply: class 0

Task item: Given the entry COc1ccc(-c2cc(=O)c3c(OC)cc(OC)c(-c4cc(-c5cc(=O)c6c(OC)cc(OC)cc6o5)ccc4OC)c3o2)cc1 , would its reported LC retention time be below 5 min?
Reply: class 0

Task item: Given the entry N#CC(OC1OC(COC2OC(CO)C(O)C(O)C2O)C(O)C(O)C1O)c1ccccc1 (stereo not drawn) , would its reported LC retention time be below 5 min?
Reply: class 1

Task item: Given the entry O=C(C=Cc1ccc(O)c(O)c1)OC1CC(O)(C(=O)O)CC(OC(=O)C=Cc2ccc(O)c(O)c2)C1O (stereo not drawn) , would its reported LC retention time be below 5 min?
Reply: class 1

Task item: Given the entry CCC1CN2CCC3(O)C(=Nc4cccc(OC)c43)C2CC1C(=COC)C(=O)OC (stereo not drawn) , would its reported LC retention time be below 5 min?
Reply: class 1

Task item: Given the entry CCCCCCC(O)CC=CCCCCCCCC(=O)O (stereo not drawn) , would its reported LC retention time be below 5 min?
Reply: class 0

Task item: Given the entry O=C(O)C1OC(Oc2c(-c3ccc(O)c(O)c3)oc3cc(O)cc(O)c3c2=O)C(O)C(O)C1O (stereo not drawn) , would its reported LC retention time be below 5 min?
Reply: class 1

Task item: Given the entry COc1cc(-c2oc3cc(O)cc(O)c3c(=O)c2O)ccc1O , would its reported LC retention time be below 5 min?
Reply: class 0
